- Assay Overview: Stability in serum-free RPMI 1640 media
- Type: in vitro ADME
- Condition Parameters: serum-free RPMI 1640 medium
Experimental Endpoint: half-life

>>> result("COc1cc(/C=C/C(=O)CC(=O)/C=C/c2ccc(O)c(OC)c2)ccc1O")
"~1 h"

----------
- Assay Overview: Stability in mouse serum at 37°C
- Assay type: in vitro ADME
Experimental Endpoint: half-life at 50 μM (min)

>>> numeric_readout("COc1cc(/C=C/C(=O)CC(=O)/C=C/c2ccc(O)c(OC)c2)ccc1O")
600

----------
- Tested on: VSVG-pseudotyped HIV-1 pNL4-3 virus expressing luciferase (HIV-1 Luc)
- Assay Overview: microbe, parasite or virus in culture
- Format: cell-based
- Condition Parameters: Human immunodeficiency virus 1, read-out: IC50, one round HIV-1 infection
Experimental Endpoint: IC50 (µM)

>>> numeric_readout("COc1cc(/C=C/C(=O)CC(=O)/C=C/c2ccc(O)c(OC)c2)ccc1O [curcumin]")
0.7
